ASSAY_SYSTEM: Kv1.3 potassium channel (Homo sapiens, UniProt P22001)
Construct: expressed in transfected cells
Sequence (P22001 whole entry): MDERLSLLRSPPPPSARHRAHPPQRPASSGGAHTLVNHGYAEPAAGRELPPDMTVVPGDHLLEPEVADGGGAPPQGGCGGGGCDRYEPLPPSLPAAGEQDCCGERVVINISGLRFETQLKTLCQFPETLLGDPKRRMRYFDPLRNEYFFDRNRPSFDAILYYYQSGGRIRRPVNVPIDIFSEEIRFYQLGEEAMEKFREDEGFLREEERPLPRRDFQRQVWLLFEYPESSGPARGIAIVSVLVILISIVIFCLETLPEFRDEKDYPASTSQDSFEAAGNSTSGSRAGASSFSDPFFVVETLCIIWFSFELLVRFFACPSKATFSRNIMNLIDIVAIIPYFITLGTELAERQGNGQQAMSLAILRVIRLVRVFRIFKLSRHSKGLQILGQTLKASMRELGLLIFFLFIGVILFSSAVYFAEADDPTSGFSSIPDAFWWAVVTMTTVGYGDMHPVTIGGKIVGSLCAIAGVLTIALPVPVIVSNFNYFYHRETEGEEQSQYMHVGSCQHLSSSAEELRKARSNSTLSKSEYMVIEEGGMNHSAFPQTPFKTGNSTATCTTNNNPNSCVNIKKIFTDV
ASSAY_METHOD_TEXT: Kv1.3 potassium channel blocker activity, automated whole-cell patch clamp (Patchliner) in CHO-K1 cells stably expressing Kv1.3
Format: cell-based
EXPERIMENTAL_CONTEXT: CHO-K1 cells stably expressing Kv1.3; patch clamp, current inhibition; read-out: Kv1.3 IC50
pIC50: −log10 of the molar value.
Task for the reader: assign each of the following compounds its reported pIC50.

[ask] Recorded pIC50 of `Oc1cc(Cl)c(Cl)cc1C1CNC1` , please.
[reply] > 5.00

[ask] Next compound: CN(C)C(=O)[C@H]1C[C@@H](c2c(O)ccc(Cl)c2Cl)CCN1 (relative stereo)
[reply] > 5.00

[ask] Same question for NC(=O)[C@H]1C[C@@H](c2c(O)cc(Cl)c(Cl)c2Cl)CCN1 (single isomer, unassigned) please.
[reply] > 6.00

[ask] // next record NC(=O)[C@@H]1CNCC[C@@H]1c1cc(Cl)c(Cl)cc1O (single isomer, unassigned)
[reply] > 5.00

[ask] CS(=O)(=O)NC[C@H]1C[C@@H](c2c(O)ccc(Cl)c2Cl)CCN1 (relative stereo) , same question.
[reply] > 6.00

[ask] # iterate: NC(=O)[C@H]1C[C@@H](c2c(O)ccc(Cl)c2Cl)CCN1 (single isomer, unassigned)
[reply] > 6.00

[ask] Continue with NC[C@H]1C[C@@H](c2c(O)ccc(Cl)c2Cl)CCN1 (relative stereo)
[reply] > 6.00

[ask] Same thing, different compound: CN(C)C(=O)[C@H]1C[C@H](c2c(O)ccc(Cl)c2Cl)CCN1 (relative stereo)
[reply] > 5.00

[ask] Proceed to OCC1CC(c2cc(Cl)c(Cl)cc2O)CN1 (centres unmarked)
[reply] > 5.00

[ask] How about this compound: O=C(O)C1CC(c2c(O)ccc(Cl)c2Cl)CCN1 (centres unmarked)
[reply] > 5.00

[ask] // next record `CNC1CCN(c2cc(Cl)c(Cl)cc2O)CC1`
[reply] > 6.00

[ask] And CNC(=O)C1CC(c2c(O)ccc(Cl)c2Cl)CCN1 (centres unmarked) ?
[reply] > 6.00

[ask] Can you handle `Oc1ccc(Cl)c(Cl)c1C1CCNCC1` next?
[reply] > 6.00

[ask] Consider next the compound `O=C(CO)N1CCC(c2c(O)cc(Cl)c(Cl)c2Cl)CC1` in the same way.
[reply] > 6.00

[ask] Next entry: Oc1cc(Cl)c(Cl)cc1C1CCCNCC1 (centres unmarked)
[reply] > 6.00

[ask] Next up: Oc1cc(Cl)c(Cl)cc1C1(O)CCNCC1 (single isomer, unassigned)
[reply] > 5.00

[ask] Okay, and CS(=O)(=O)NC[C@@H]1C[C@H](c2c(O)ccc(Cl)c2Cl)CCN1 (single isomer, unassigned) ?
[reply] > 6.00

###

ASSAY_SYSTEM: Kv1.3 potassium channel (Homo sapiens)
Construct: expressed in transfected cells
ASSAY_METHOD_TEXT: Kv1.3 potassium channel blocker activity, automated whole-cell patch clamp (Patchliner) in CHO-K1 cells stably expressing Kv1.3
Format: cell-based
EXPERIMENTAL_CONTEXT: CHO-K1 cells stably expressing Kv1.3; patch clamp, current inhibition; read-out: Kv1.3 IC50
Please respond with reported IC50 for every item in the list.

[ask] What value of measured IC50 is listed for OC[C@H]1C[C@@H](c2cc(Cl)c(Cl)cc2O)CCN1 (single isomer, unassigned) ?
[reply] < 10 µM

[ask] Can you handle O=C(NCC1CC(c2c(O)ccc(Cl)c2Cl)CCN1)C1CC1 (stereo not shown) next?
[reply] < 1 µM

[ask] For `NC(=O)N1CCC(c2c(O)cc(Cl)c(Cl)c2Cl)CC1` then?
[reply] < 1 µM

[ask] Item: CC1(C(N)=O)CC(c2c(O)ccc(Cl)c2Cl)CCN1 (stereo not shown)
[reply] < 10 µM
